B1: CPEB3 Ribozyme (parent)
chain: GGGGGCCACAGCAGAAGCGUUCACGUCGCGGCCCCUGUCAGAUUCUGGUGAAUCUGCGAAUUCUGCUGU

Variants of: B1
Test: self-cleavage, relative activity (ratio to wild type); higher = more cleavage; co-transcriptional
Answer NO if self-cleavage is under 0.3, and YES if it is 0.3 or more.

{"columns": ["Chain", "Class name"],
 "data": [
  ["GGGGGCCACAACAGAAGCGUUCACGUCGCGGCCCCUGUCAGAUUCUGGUGAAUCUGCGAAUUCUGCUGC [G11A U69C]", "YES"],
  ["GGGGGCCACAGCAGAAGCGUUCACGUCGCGGCCCCUGUCAGAUUCUGGUGAAUCUGCGAUUGCUGCUGU [A60U U62G]", "YES"],
  ["GGGGGCCACAGCAGAAGCGUUAACCUCGCGGCCCCUGUCAGAUUCUGGUGAAUCUGCGAAUUCUGCUGU [C22A G25C]", "NO"],
  ["GGGGGCCACAGCAGAAGCGUUCACGUCGCGGCCCCUGUCAGAUUCUGGUGAAUCUGCGAUUUCAGCUGU [A60U U64A]", "YES"],
  ["GGGGGCCACAGCAGAAGCGCUCACGUCGCGGCCCCUGUCAGAUUCUGGUGCAUCUGCGAAUUCUGCUGU [U20C A51C]", "NO"],
  ["GGGGGCCACAGCAGAAGCGUUCACGUGGAGGCCCCUGUCAGAUUCUGGUGAAUCUGCGAAUUCUGCUGU [C27G C29A]", "NO"]
]}
